- Test system: Oslrk5
- TEST NAME: RT-PCR of Oslrks in treated 2 week-old seedlings; note: key: 'I' represents induced expression; 'R' represents repressed expression
- Assay type: in vivo, Oryza sativa
- EXPERIMENTAL CONTEXT: Sh, treated vs control
REPORTED PROPERTY: Oslrk5 expression by RT-PCR, Sh

Example results:
# COMPOUND, Oslrk5 expression by RT-PCR, Sh
rows = [
    ("OC[C@H]1O[C@@](CO)(O[C@H]2O[C@H](CO)[C@@H](O)[C@H](O)[C@H]2O)[C@@H](O)[C@@H]1O", "I"),
    ("CC/C=C\\CC1C(=O)CCC1CC(=O)OC (centres unmarked) [MeJA, Methyl Jasmonate]", "R"),
    ("CC1=CC(=O)CC(C)(C)[C@@]1(O)/C=C/C(C)=C\\C(=O)O [ABA, Abscisic acid]", "I"),
    ("O=C[C@@H](O)[C@@H](O)[C@H](O)[C@H](O)CO (racemic)", "R"),
]

Now turn to the next compound.
Enquiry: Entry O=C[C@H](O)[C@@H](O)[C@@H](O)[C@H](O)CO needs its Oslrk5 expression by RT-PCR, Sh filled in; supply it.
Return: I
